SYSTEM_UNDER_TEST: human recombinant TYK2 protein (Homo sapiens, UniProt P29597)
PROCEDURE_TEXT: TYK2 activity inhibition assay (HTRF kinase detection)
STATED_CONDITIONS: 11.25 μM ATP substrate solution
VALUE_KIND: IC50 (nM)

Examples from the recorded data:
# COMPOUND, SYSTEM_UNDER_TEST, VALUE_KIND, UNIT_SPEC, NUMBER
data = [
    ("NC(=O)c1ccc(Nc2nc(-c3c(F)cccc3Cl)n3cc[nH]c(=O)c23)cc1 [Compound 28]", "human recombinant TYK2 protein (Homo sapiens, UniProt P29597)", "IC50", "nM", 0.03),
    ("O=C(c1cccc(Nc2nc(-c3c(F)cccc3F)n3cc[nH]c(=O)c23)c1)N1CCOCC1 [Compound 22]", "human recombinant TYK2 protein (Homo sapiens, UniProt P29597)", "IC50", "nM", 3.3),
    ("O=C1NCCn2c(-c3c(F)cccc3F)nc(Nc3ccc(N4CCOCC4)cc3)c21 [Compound 10]", "human recombinant TYK2 protein (Homo sapiens, UniProt P29597)", "IC50", "nM", 0.4),
]

A. O=c1[nH]ccn2c(-c3c(F)cccc3F)nc(Nc3ccc(N4CCOCC4)cc3)c12 [Compound 6]
B. NC(=O)c1ccc(Nc2nc(-c3c(F)cccc3F)n3cc[nH]c(=O)c23)cc1 [Compound 27]
C. Cn1ccc(Nc2nc(-c3c(F)cccc3F)n3cc[nH]c(=O)c23)n1 [Compound 7]
D. Cn1cc(Nc2nc(-c3c(F)cccc3F)n3c2C(=O)NCC3)cn1 [Compound 5]
E. CC(C)(C(N)=O)c1ccc(Nc2nc(-c3c(F)cccc3Cl)n3cc[nH]c(=O)c23)cc1 [Compound 33]
Which order do these items take when sorted by rising IC50? List them. Returns: the labels arranged in the requested order.
E, B, A, D, C
(E: 0.1 nM, B: 0.2 nM, A: 0.3 nM, D: 4.8 nM, C: 20 nM)

A. CC(C)(C(=O)N1CCNCC1)c1ccc(Nc2nc(-c3c(F)cccc3Cl)n3cc[nH]c(=O)c23)cc1 [Compound 38]
B. O=C(c1ccc(Nc2nc(C3CCNCC3)n3cc[nH]c(=O)c23)cc1)N1CCOCC1 [Compound 20]
Given the two records A and B , choose the one whose IC50 value is lower. Response format: the label of the selected entry.
A
(A: 0.4 nM, B: 37 nM)

* * *

SYSTEM_UNDER_TEST: human recombinant JAK2 protein (Homo sapiens, UniProt O60674)
PROCEDURE_TEXT: JAK2 activity inhibition assay (HTRF kinase detection)
STATED_CONDITIONS: 2.5 μM ATP substrate solution
pIC50: −log10 of the molar value.
VALUE_KIND: pIC50

Consider the reported pIC50 for these molecules:
# COMPOUND_SMILES, pIC50
records = [
    ("O=C(O)c1ccc(Nc2nc(-c3c(F)cccc3F)n3cc[nH]c(=O)c23)cc1", 8.35),
    ("CS(=O)(=O)c1ccc(Nc2nc(-c3c(F)cccc3F)n3c2C(=O)NCC3)cc1", 8.26),
    ("CN1CCN(C(=O)C(C)(C)c2ccc(Nc3nc(-c4c(F)cccc4Cl)n4cc[nH]c(=O)c34)cc2)CC1", 9.22),
    ("O=C1NCCn2c(-c3c(F)cccc3F)nc(Nc3cnn(CC(=O)N4CCOCC4)c3)c21", 7.38),
    ("CC(C)(C(=O)N1CCC1)c1ccc(Nc2nc(-c3c(F)cccc3F)n3c2C(=O)NCC3)cc1", 8.66),
]

1. O=C1NCCn2c(-c3c(F)cccc3F)nc(Nc3cccc(C(=O)N4CCOCC4)c3)c21
2. Cn1ccc(Nc2nc(-c3c(F)cccc3F)n3cc[nH]c(=O)c23)n1
3. CC(C)(C(=O)N1CCOCC1)c1ccc(Nc2nc(-c3c(F)cccc3F)n3cc[nH]c(=O)c23)cc1
Sort the 3 molecules by pIC50; largest first, smallest last. Please express your ranking as an ordered list of the labels.
3, 1, 2

* * *

SYSTEM_UNDER_TEST: human recombinant JAK2 protein (Homo sapiens, UniProt O60674)
PROCEDURE_TEXT: JAK2 activity inhibition assay (HTRF kinase detection)
STATED_CONDITIONS: 2.5 μM ATP substrate solution
VALUE_KIND: IC50 (nM)

# COMPOUND_SMILES, IC50, nM
measured = [
    ("O=C(c1ccc(Nc2nc(-c3c(F)cccc3Cl)n3cc[nH]c(=O)c23)cc1)N1CCOCC1", 0.4),
    ("O=C(c1ccc(Nc2nc(-c3c(F)cccc3F)n3cc[nH]c(=O)c23)cc1)N1CCNCC1", 0.8),
    ("O=C(c1cccc(Nc2nc(-c3c(F)cccc3F)n3cc[nH]c(=O)c23)c1)N1CCOCC1", 3.9),
    ("CN1CCN(C(=O)c2ccc(Nc3nc(-c4c(F)cccc4F)n4cc[nH]c(=O)c34)cc2)CC1", 0.7),
    ("CC(C)(C(=O)O)c1ccc(Nc2nc(-c3c(F)cccc3F)n3cc[nH]c(=O)c23)cc1", 2.8),
    ("O=C(c1ccc(Nc2nc(C3CCNCC3)n3cc[nH]c(=O)c23)cc1)N1CCOCC1", 53),
    ("CC(C)(C(=O)N1CCOCC1)c1ccc(Nc2nc(-c3c(F)cccc3F)n3c2C(=O)NCC3)cc1", 2.2),
    ("CC(C)(C(N)=O)c1ccc(Nc2nc(-c3c(F)cccc3F)n3cc[nH]c(=O)c23)cc1", 0.6),
    ("CN1CCN(C(=O)C(C)(C)c2ccc(Nc3nc(-c4c(F)cccc4F)n4cc[nH]c(=O)c34)cc2)CC1", 0.6),
    ("CC(C)(C(N)=O)c1ccc(Nc2nc(-c3c(F)cccc3Cl)n3cc[nH]c(=O)c23)cc1", 0.4),
]

A. NC(=O)c1ccc(Nc2nc(-c3c(F)cccc3Cl)n3cc[nH]c(=O)c23)cc1
B. O=c1[nH]ccn2c(-c3c(F)cccc3F)nc(Nc3ccc(N4CCOCC4)cn3)c12
C. CS(=O)(=O)c1ccc(Nc2nc(-c3c(F)cccc3F)n3cc[nH]c(=O)c23)cc1
D. O=C(c1ccc(Nc2nc(-c3c(F)cccc3F)n3cc[nH]c(=O)c23)cc1)N1CCOCC1
E. Cn1cc(Nc2nc(-c3c(F)cccc3F)n3cc[nH]c(=O)c23)cn1
Given 5 molecules, produce a descending ranking by IC50. List the labels according to the requested ordering.
B, E, C, A, D

* * *

SYSTEM_UNDER_TEST: human recombinant TYK2 protein (Homo sapiens, UniProt P29597)
PROCEDURE_TEXT: TYK2 activity inhibition assay (HTRF kinase detection)
STATED_CONDITIONS: 11.25 μM ATP substrate solution
VALUE_KIND: IC50 (nM)

Known IC50 results, listed for orientation:
# COMPOUND_SMILES, UNIT_SPEC, IC50
data = [
    ("O=C(c1ccc(Nc2nc(-c3c(F)cccc3F)n3cc[nH]c(=O)c23)cc1)N1CCNCC1", "nM", 0.1),
    ("CS(=O)(=O)c1ccc(Nc2nc(-c3c(F)cccc3F)n3c2C(=O)NCC3)cc1", "nM", 0.9),
    ("CC(C)(C(=O)N1CCC1)c1ccc(Nc2nc(-c3c(F)cccc3F)n3c2C(=O)NCC3)cc1", "nM", 0.3),
]

1. CN1CCN(C(=O)c2ccc(Nc3nc(-c4c(F)cccc4Cl)n4cc[nH]c(=O)c34)cc2)CC1
2. CS(=O)(=O)c1ccc(Nc2nc(-c3c(F)cccc3F)n3cc[nH]c(=O)c23)cc1
3. O=C1NCCn2c(-c3c(F)cccc3F)nc(Nc3ccc(CC(=O)N4CCOCC4)cc3)c21
Order the entries by their reported IC50, beginning at the minimum. # format: label list in the order the request specifies
1, 3, 2

* * *

PROCEDURE_TEXT: Pharmacokinetic assay in mice (plasma and colon exposure)
Format: in vivo
STATED_CONDITIONS: mouse; fed female C57 mice, 25 mg/kg PO, 4 hours after dosing, plasma; LOQ 1 ng/mL; read-out: Plasma exposure
VALUE_KIND: concentration at 4 h (ng/mL)

Below, each entry is followed by its recorded concentration at 4 h result.
# MOLECULE, concentration at 4 h, ng/mL
rows = [
    ("CN1CCN(C(=O)c2ccc(Nc3nc(-c4c(F)cccc4F)n4cc[nH]c(=O)c34)cc2)CC1 [Compound 29]", 75),
    ("CC(C)(C(=O)N1CCNCC1)c1ccc(Nc2nc(-c3c(F)cccc3F)n3cc[nH]c(=O)c23)cc1 [Compound 36]", 18),
]

P. NC(=O)c1ccc(Nc2nc(-c3c(F)cccc3Cl)n3cc[nH]c(=O)c23)cc1 [Compound 28]
Q. O=C(c1ccc(Nc2nc(-c3c(F)cccc3F)n3cc[nH]c(=O)c23)cc1)N1CCOCC1 [Compound 1]
R. CC(C)(C(N)=O)c1ccc(Nc2nc(-c3c(F)cccc3F)n3cc[nH]c(=O)c23)cc1 [Compound 34]
Ordering criterion: concentration at 4 h; begin with the maximum. I'd appreciate it if you listed the labels in the requested order.
Q, R, P
(Q: 249 ng/mL, R: 50 ng/mL, P: 15 ng/mL)

These data points were gathered from patent US20240246984A1.
